Property: pIC50; scope: individual compounds
# Test system: human CX-1 colon cells
# experimentDescription: Growth inhibition of tumor cells in culture, Coulter Counter cell count after 5 days
# Type: cell-based
# conditionSummary: 120 h, read-out: IC50 of fused ring triazole (concentration inhibiting growth of cell line by 50%)
Just the number, please; pIC50 means minus log10 of the concentration in mol/L.

// solved cases for pIC50 follow
| compound | measurementName | testResult |
| --- | --- | --- |
| C1=Nn2c(nnc2-c2cccs2)S/C1=C\c1ccccc1 [Compound IId] | pIC50 | 4.70 |
| C1=Nn2c(nnc2-c2ccccn2)S/C1=C\c1ccccc1 [Compound IIb] | pIC50 | 4.52 |

Moving on to another compound below.
Recall the recorded pIC50 for C1=Nn2c(nnc2-c2ccncc2)S/C1=C\c1ccccc1 [Compound IIa] with human CX-1 colon cells and state it. 4.77

* * *

# System: mouse B16 melanoma
# experimentDescription: Growth inhibition of tumor cells in culture, Coulter Counter cell count after 5 days
# Format: cell-based
# conditionSummary: 120 h, read-out: IC50 of fused ring triazole (concentration inhibiting growth of cell line by 50%)
Property: IC50; scope: individual compounds
Kindly provide the numeric value in µM only, without the unit symbol.

// solved cases for IC50 follow
| compound | IC50 (µM) |
| --- | --- |
| C1=Nn2c(nnc2-c2cccs2)S/C1=C\c1ccccc1 [Compound IId] | 23 |
| C1=Nn2c(nnc2-c2ccccn2)S/C1=C\c1ccccc1 [Compound IIb] | 15 |

Fill in: IC50 of C1=Nn2c(nnc2-c2ccncc2)S/C1=C\c1ccccc1 [Compound IIa] is ___ 9

These entries and their values trace back to patent US20060270664A1.
